# Protocol Text: duplex melting temperature (HRM, EvaGreen); higher = more stable duplex
# Details: duplex concentration 20 µM; backbone: PS-PS (both strands fully phosphorothioate)
Quantity: duplex melting temperature

Lookup: Would you kindly share the measured duplex melting temperature for GGACGGCGTT ?
Found: 53.7 °C

Lookup: Would you kindly share the measured duplex melting temperature for GTGGTACAAATGCGACC ?
Found: 58.2 °C

Lookup: Would you kindly share the measured duplex melting temperature for GGTGGCGTTCTT ?
Found: 55.8 °C

Lookup: Would you kindly share the measured duplex melting temperature for CCACTAGCGGCGCCGTT ?
Found: 71.4 °C

Lookup: Would you kindly share the measured duplex melting temperature for CTACCAGCGGCGCCGTT ?
Found: 73.1 °C

Lookup: Would you kindly share the measured duplex melting temperature for AGGAGTGAATGAAATGG ?
Found: 52.2 °C

Lookup: Would you kindly share the measured duplex melting temperature for GCTGAACTAACCACCA ?
Found: 56.6 °C

Lookup: Would you kindly share the measured duplex melting temperature for TTGAAAACCCATGTGC ?
Found: 53.3 °C

Lookup: Would you kindly share the measured duplex melting temperature for CTCGGAGGCCCCATTTA ?
Found: 65.3 °C

Lookup: Would you kindly share the measured duplex melting temperature for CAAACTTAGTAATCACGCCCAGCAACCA ?
Found: 68.5 °C

Lookup: Would you kindly share the measured duplex melting temperature for GCGGTTGGTGGCCAAC ?
Found: 65.4 °C

Lookup: Would you kindly share the measured duplex melting temperature for TCTCGCGGTTCCATTA ?
Found: 61.5 °C

Lookup: Would you kindly share the measured duplex melting temperature for GCTGTGAAACAATGTAG ?
Found: 51.1 °C

Lookup: Would you kindly share the measured duplex melting temperature for CGGTGCTTTTGGTAGC ?
Found: 57.7 °C

Lookup: Would you kindly share the measured duplex melting temperature for GATTGTATCATCGACATCACACTACC ?
Found: 63 °C

Lookup: Would you kindly share the measured duplex melting temperature for ATAACTTACTCTCGCCT ?
Found: 57.1 °C

Lookup: Would you kindly share the measured duplex melting temperature for CGGGATTTCTGGCATCATTGTCCT ?
Found: 66.1 °C

Lookup: Would you kindly share the measured duplex melting temperature for AACGAATGTCAGCAATT ?
Found: 56.3 °C

Lookup: Would you kindly share the measured duplex melting temperature for TTCTACATCCATCTTAATCCCA ?
Found: 58 °C

Lookup: Would you kindly share the measured duplex melting temperature for GTGAAACAATGCTGTAG ?
Found: 52.7 °C

Lookup: Would you kindly share the measured duplex melting temperature for CTGTAAGGCGATATGTT ?
Found: 55.1 °C

Lookup: Would you kindly share the measured duplex melting temperature for TGTCGCACCCTACTA ?
Found: 60.8 °C

Lookup: Would you kindly share the measured duplex melting temperature for AGCTGAGCCTGCCGCC ?
Found: 70.3 °C

Lookup: Would you kindly share the measured duplex melting temperature for TAGACGCGGCCTCTTTCC ?
Found: 68.8 °C

Lookup: Would you kindly share the measured duplex melting temperature for GTCATTGTGCTTTTGC ?
Found: 52.8 °C

Lookup: Would you kindly share the measured duplex melting temperature for GTGAGCAGAAGGGGTT ?
Found: 60.9 °C

Lookup: Would you kindly share the measured duplex melting temperature for CTTTTGTGCGGGTAGC ?
Found: 59.6 °C

Lookup: Would you kindly share the measured duplex melting temperature for CTAAACTGTTATAGCCGG ?
Found: 56.3 °C

Lookup: Would you kindly share the measured duplex melting temperature for TAATTATACGAGTAGTTTCTGTCCTG ?
Found: 60.8 °C

Lookup: Would you kindly share the measured duplex melting temperature for GAGGCAGCCGCGACCTG ?
Found: 72.6 °C

====

Record form. Attribute: duplex formation free energy ΔG50. Fill in for each entry.
# Protocol Text: duplex formation free energy ΔG50 (Van't Hoff fit of HRM Tm); higher = less stable duplex
# Details: temperature for dG: 50 °C; NaCl: 500 mM (unadjusted); backbone: PS-PS (both strands fully phosphorothioate)
The answer should read as a number with its unit following.

Lookup: Would you kindly share the measured duplex formation free energy ΔG50 for GCTGAACTAACCACCA ?
Found: -9.25 kcal/mol

Lookup: Would you kindly share the measured duplex formation free energy ΔG50 for GTCATTGTGCTTTTGC ?
Found: -8.43 kcal/mol

Lookup: Would you kindly share the measured duplex formation free energy ΔG50 for CACAGCGACATGTATGG ?
Found: -10.1 kcal/mol

Lookup: Would you kindly share the measured duplex formation free energy ΔG50 for CCCAGGCCTCGGATTTA ?
Found: -11.4 kcal/mol

Lookup: Would you kindly share the measured duplex formation free energy ΔG50 for GATGCCGCAGCGACCTG ?
Found: -12.4 kcal/mol

Lookup: Would you kindly share the measured duplex formation free energy ΔG50 for GCGGTTGGTGGCCAAC ?
Found: -11.3 kcal/mol

Lookup: Would you kindly share the measured duplex formation free energy ΔG50 for TGCCATGTTGAAAACC ?
Found: -8.45 kcal/mol

Lookup: Would you kindly share the measured duplex formation free energy ΔG50 for GCAGGAGCCGCGACCTG ?
Found: -12.8 kcal/mol

Lookup: Would you kindly share the measured duplex formation free energy ΔG50 for CTAAACTGTTATAGCCGG ?
Found: -8.98 kcal/mol

====

# Protocol Text: duplex melting temperature (HRM, EvaGreen); higher = more stable duplex
# Details: duplex concentration 15 µM; backbone: PO-PO (both strands phosphodiester DNA)
Quantity: duplex melting temperature (°C)
Value expressed in °C; do not type the unit.

Lookup: Would you kindly share the measured duplex melting temperature for TACTTCCAACGTAGG ?
Found: 66.1

Lookup: Would you kindly share the measured duplex melting temperature for GAGCAGAAGGGGTTGT ?
Found: 72.4

Lookup: Would you kindly share the measured duplex melting temperature for ACATGACTCATCTTAGCCGGCGAG ?
Found: 83

Lookup: Would you kindly share the measured duplex melting temperature for GAACCGTTGATGATCTC ?
Found: 70.4

Lookup: Would you kindly share the measured duplex melting temperature for GGTTGCGGTGGCCAAC ?
Found: 78

Lookup: Would you kindly share the measured duplex melting temperature for ATAACTTACTCTCGCCT ?
Found: 70.8

Lookup: Would you kindly share the measured duplex melting temperature for TAGACGCGGCCTCTTTCC ?
Found: 79.8

Lookup: Would you kindly share the measured duplex melting temperature for TTTGGGTTAGTAAGAAGGCAGCAGTTGGGC ?
Found: 84.2

Lookup: Would you kindly share the measured duplex melting temperature for GCGGTTGGTGGCCAAC ?
Found: 77.9

Lookup: Would you kindly share the measured duplex melting temperature for GTCATTGTGCTTTTGC ?
Found: 68.5

Lookup: Would you kindly share the measured duplex melting temperature for CCGCTCAGAGTAGAGA ?
Found: 71.2

Lookup: Would you kindly share the measured duplex melting temperature for AGCACGGTGGTACAACA ?
Found: 73.4

Lookup: Would you kindly share the measured duplex melting temperature for CTGTAAGGCGATATGTT ?
Found: 69.6

Lookup: Would you kindly share the measured duplex melting temperature for TTCGCGGTCTCCATTA ?
Found: 73.1

Lookup: Would you kindly share the measured duplex melting temperature for GGTGGCGTTCTT ?
Found: 66.4

Lookup: Would you kindly share the measured duplex melting temperature for GCAGGAGCCGCGACCTG ?
Found: 82.5

Lookup: Would you kindly share the measured duplex melting temperature for GTGGTACAAATGCGACC ?
Found: 73.2

Lookup: Would you kindly share the measured duplex melting temperature for AACGAATGTCAGCAATT ?
Found: 70.5

Lookup: Would you kindly share the measured duplex melting temperature for TGTAAGACTTCTGCCAGAAA ?
Found: 74

Lookup: Would you kindly share the measured duplex melting temperature for ACTCGCTCTACCTTAAT ?
Found: 69.2

Lookup: Would you kindly share the measured duplex melting temperature for CTAAACTGTTATAGCCGG ?
Found: 71.2

Lookup: Would you kindly share the measured duplex melting temperature for CTACCAGCGGCGCCGTT ?
Found: 83.5

Lookup: Would you kindly share the measured duplex melting temperature for AGCTGAGCCTGCCGCC ?
Found: 81.6

Lookup: Would you kindly share the measured duplex melting temperature for TTAACCTGCAATGGATC ?
Found: 69

Lookup: Would you kindly share the measured duplex melting temperature for TTGAAAACCCATGTGC ?
Found: 68.7

Lookup: Would you kindly share the measured duplex melting temperature for AGACATCCCATACGAGCATCCA ?
Found: 80

Lookup: Would you kindly share the measured duplex melting temperature for GCTGAACTAACCACCA ?
Found: 70.5

Lookup: Would you kindly share the measured duplex melting temperature for CTCGGAGGCCCCATTTA ?
Found: 76

Lookup: Would you kindly share the measured duplex melting temperature for AGAGCGCCCTGCTGCC ?
Found: 81.9

Lookup: Would you kindly share the measured duplex melting temperature for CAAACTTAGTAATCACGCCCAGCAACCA ?
Found: 82.9

Lookup: Would you kindly share the measured duplex melting temperature for CCGTTGCTGCTAGG ?
Found: 71.9

Lookup: Would you kindly share the measured duplex melting temperature for GGACGGCGTT ?
Found: 64.9

Lookup: Would you kindly share the measured duplex melting temperature for CTCAGAGTAGAGCCGA ?
Found: 71.9

Lookup: Would you kindly share the measured duplex melting temperature for ACGGGTCGTTCCGTG ?
Found: 75.8

Lookup: Would you kindly share the measured duplex melting temperature for AATGTCGAACAGCAATT ?
Found: 70.7

Lookup: Would you kindly share the measured duplex melting temperature for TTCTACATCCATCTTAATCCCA ?
Found: 73.5
